- Test system: Mycobacterium tuberculosis
- ASSAY TEXT: Cornell M. t heat shock assay; note: in the data most compounds retested in dose-response had high values
- Format: functional, organism-based
- Design: dose or concentration left out as unconfirmed
Among all 69,000 compounds or so, about 950 (1.4%) showed an effect of 50% or more. The list comes from a sample in which strong results are over-represented; it also holds close analogues and randomly drawn compounds.
List of Percent Effect values.
Only the number, expressed in %, is required.

1. O=C(NC1(c2nccs2)CCCC1)c1cc(C2CC2)on1 | 7.107

Qu. // query Percent Effect value for entry Cn1nccc1C(=O)N1CCC2(CC1)COC(COc1ccccn1)C2.O=C(O)C(F)(F)F (stereo unspecified)
Ans. -4.012

Qu. // query Percent Effect value for entry Cc1cnc(C(=O)N2Cc3ncn(C)c3C(COCC(C)C)C2)cn1.O=C(O)C(F)(F)F (stereo unspecified)
Ans. 6.608

Qu. // query Percent Effect value for entry CC(C)N1CCC2(CCCNC2)C1=O.Cl (stereo unspecified)
Ans. -7.448

Qu. // query Percent Effect value for entry OCCOc1cc(F)ccc1NCc1cccc(F)c1F
Ans. -41.85

Qu. // query Percent Effect value for entry CCCc1nc(CNC2(c3nccs3)CCCC2)cs1
Ans. 94.85

###

List of Percent Effect values.
- Tested on: Mycobacterium tuberculosis
- ASSAY TEXT: Cornell M. t heat shock assay; note: in the data most compounds retested in dose-response had high values
- Format: functional, organism-based
- Design: dose or concentration left out as unconfirmed
Hit rate of the full screen: of about 69,000 compounds, about 950 (1.4%) showed an effect of 50% or more. What follows is part of a selection rich in strong results, with near analogues and random picks from the rest.
Only the number, expressed in %, is required.

Qu. // query Percent Effect value for entry Cc1cc(C[C@@H]2COC[C@H]2NCc2ccc(C(C)C)cc2)on1.O=C(O)CC(O)(CC(=O)O)C(=O)O
Ans. 9.353

###

- Test system: Mycobacterium tuberculosis
- ASSAY TEXT: Cornell M. t heat shock assay; note: in the data most compounds retested in dose-response had high values
- Assay type: functional, organism-based
- Set-up: dose or concentration left out as unconfirmed
Out of some 69,000 compounds screened, about 950 (1.4%) showed an effect of 50% or more. The full list was thinned out, with strong results kept by preference.
QUANTITY NAME: Percent Effect (%)
Only the number, expressed in %, is required.

Solved cases below.
1) O=S(=O)(NCCNc1ccc(-n2cccc2)nn1)c1cccs1 | 103.8
2) CC(C)(O)CCc1cccc(C(=O)NCc2cnn3cccnc23)c1 | -5.166

Proceeding to the next compound to report its Percent Effect.
Qu. // query Percent Effect value for entry CCn1cc2c(n1)CN(Cc1nccs1)CC2COCC1CC1.O=C(O)C(F)(F)F (stereo unspecified)
Ans. 3.982

###

- Test system: Mycobacterium tuberculosis
- ASSAY TEXT: Cornell M. t heat shock assay; note: in the data most compounds retested in dose-response had high values
- Format: functional, organism-based
- Set-up: dose or concentration left out as unconfirmed
Out of some 69,000 compounds screened, about 950 (1.4%) showed an effect of 50% or more. The list comes from a sample in which strong results are over-represented; it also holds close analogues and randomly drawn compounds.
QUANTITY NAME: Percent Effect (%)
Only the number, expressed in %, is required.

Solved cases below.
1) Cc1ccc(-c2cn[nH]c2C2CCCN(c3nccc(N)n3)C2)cc1 (stereo unspecified) | 65.07
2) COCCN1CCCC2(CCC(=O)N2Cc2cccnc2)C1.O=C(O)C(F)(F)F (stereo unspecified) | -18.4
3) CN(C)C(=O)CC1CC2(CCN(CC3CC3)CC2)Oc2ccccc21.O=C(O)C(F)(F)F (stereo unspecified) | 11.01
4) CS(=O)(=O)N[C@@H]1CN(C(=O)c2cc3ccccc3s2)C[C@H]1O | 101.8
5) CC1COC2(CCN(C(=O)Cc3ccncc3)CC2)C1.O=C(O)C(F)(F)F (stereo unspecified) | 19.29

Qu. // query Percent Effect value for entry C[C@H]1CN(Cc2cccc(F)c2)C[C@@]12CCN(CC(=O)N(C)C)C2=O.O=C(O)C(F)(F)F
Ans. -2.321

Qu. // query Percent Effect value for entry CS(=O)(=O)NC1CCN(C(=O)c2cc3ccccc3s2)C1 (stereo unspecified)
Ans. 0.7353

Qu. // query Percent Effect value for entry CNC(=O)[C@H]1C[C@@H]2CN(Cc3csc(C)n3)C[C@@H]2N1S(C)(=O)=O.O=C(O)C(F)(F)F
Ans. 2.273

Qu. // query Percent Effect value for entry Cc1ccc(-c2cn[nH]c2C2CCCN(c3ncccn3)C2)cc1 (stereo unspecified)
Ans. -0.9903

Qu. // query Percent Effect value for entry Cc1nc(CCN)cc(N2CCC(O)(c3ccc(Cl)cc3)CC2)n1
Ans. -16.16

###

- Tested on: Mycobacterium tuberculosis
- ASSAY TEXT: Cornell M. t heat shock assay; note: in the data most compounds retested in dose-response had high values
- Type: functional, organism-based
- Design: dose or concentration left out as unconfirmed
The whole screen tested about 69,000 compounds, of which about 950 (1.4%) showed an effect of 50% or more. What follows is part of a selection rich in strong results, with near analogues and random picks from the rest.
QUANTITY NAME: Percent Effect (%)
Only the number, expressed in %, is required.

1. CN(C)CC(=O)N1CCC2(CC1)CN(c1ccsc1)C(=O)CO2.O=C(O)C(F)(F)F | -14.58
2. CC(=O)N1CCCC1c1nnn2cc(NCc3cccnc3)ccc12.O=C(O)C(F)(F)F.O=C(O)C(F)(F)F (centres undefined) | 27.19
3. CC(=O)N1CCCC1c1nnn2cc(Nc3ccccc3)ccc12.O=C(O)C(F)(F)F (centres undefined) | 86.99

Proceeding to the next compound to report its Percent Effect.
Qu. // query Percent Effect value for entry CC(=O)N1CCCC1c1nnn2cc(-c3ccncc3)ccc12.O=C(O)C(F)(F)F (centres undefined)
Ans. 8.291

###

- Tested on: Mycobacterium tuberculosis
- ASSAY TEXT: Cornell M. t heat shock assay; note: in the data most compounds retested in dose-response had high values
- Assay type: functional, organism-based
- Parameters: dose or concentration left out as unconfirmed
About 950 (1.4%) of roughly 69,000 compounds showed an effect of 50% or more. What follows is part of a selection rich in strong results, with near analogues and random picks from the rest.
Mark 1 only when Percent Effect stays strictly below -10%. Values equal to the cut-off are 0.

1. O=C(O)C(F)(F)F.O=C(c1ccnnc1)N1C[C@H]2CCC[C@@]2(COCc2ccccn2)C1 | 1
2. O=C(O)c1ccc2c(CN3CCOCC3)c[nH]c2c1 | 1
3. CC(C)(C)c1coc([C@@H]2COCCN2Cc2c[nH]c3ccccc23)n1 | 0
4. FC(F)(F)c1ccccc1CN1CCOC[C@H](Oc2cccnc2)C1 | 1

Please find the next compound below.
Qu. Is -10% strictly greater than the compound's reported Percent Effect? compound: c1ccc(O[C@H]2COCCN(Cc3cccc4c3OCO4)C2)cc1
Ans. 1

###

- System: Mycobacterium tuberculosis
- ASSAY TEXT: Cornell M. t heat shock assay; note: in the data most compounds retested in dose-response had high values
- Type: functional, organism-based
- Parameters: dose or concentration left out as unconfirmed
About 950 (1.4%) of roughly 69,000 compounds showed an effect of 50% or more. The full list was thinned out, with strong results kept by preference.
List of Percent Effect values.
Only the number, expressed in %, is required.

Solved cases below.
1. Cn1cc(NC(=O)CCc2ccsc2)ccc1=O | 27.26
2. Cc1cnn(CC2CCCCN2CC(=O)Nc2nncs2)c1 (centres undefined) | 18.17
3. CC[C@@H]1N(Cc2cccnc2)CCC[C@]12CCC(=O)N2C.O=C(O)C(F)(F)F.O=C(O)C(F)(F)F | -6.56

Proceeding to the next molecule to report its Percent Effect.
Qu. Param readout = Percent Effect; param system = Mycobacterium tuberculosis; param query = Cc1ccc(N2CCCC3(COCCN(c4ccccn4)C3)C2)nn1.O=C(O)C(F)(F)F (centres undefined) ; response: value
Ans. -19.77

###

- System: Mycobacterium tuberculosis
- ASSAY TEXT: Cornell M. t heat shock assay; note: in the data most compounds retested in dose-response had high values
- Format: functional, organism-based
- Design: dose or concentration left out as unconfirmed
Screen size: about 69,000 compounds; about 950 (1.4%) showed an effect of 50% or more. This excerpt belongs to a sample that is enriched for strong results.
Mark YES only when Percent Effect stays strictly below 20%. Values equal to the cut-off are NO.

Here's what some known entries look like.
1) Cn1ccnc1C(NCc1ccc(Br)cc1)c1ccccc1 (centres undefined) | NO
2) CN(Cc1cncnc1)[C@@H]1CN(C(=O)c2ccco2)[C@@H]2CCCO[C@H]12.O=C(O)C(F)(F)F | NO
3) Cc1ccc2nc(C3CCN(CC4CC4)CC3)nn2c1.O=C(O)C(F)(F)F | YES
4) Cc1cc(C(=O)N2CCN(c3nc4ccccc4s3)CC2)no1 | YES
5) CC(C)CN1C[C@H]2CCN(Cc3cccnc3)CC[C@H]2S1(=O)=O.O=C(O)C(F)(F)F.O=C(O)C(F)(F)F | YES
6) COc1ccc(CNC(Cn2cncn2)c2ccccc2)cc1C (centres undefined) | YES
7) CC1=N[C@@]2(CC[C@@H]3CNC[C@@H]32)C(=O)N1CC(C)C.O=C(O)C(F)(F)F | YES
8) CCOCC1CN(Cc2cnn(C)c2)Cc2c1cnn2CC.O=C(O)C(F)(F)F (centres undefined) | YES
9) Cn1ccnc1-c1noc(NCc2ccccc2)n1 | YES
10) FC(F)(F)c1ccc(-c2noc3c2CN(CC2CCCO2)CC3)cc1 (centres undefined) | NO

Qu. Is 20% strictly greater than the compound's reported Percent Effect? compound: Cc1cccc(C(=O)N2CCC[C@]3(C[C@@H](OCC4CC4)CO3)C2)n1.O=C(O)C(F)(F)F
Ans. YES

Qu. Is 20% strictly greater than the compound's reported Percent Effect? compound: COc1cccc([C@H]2CN(C(=O)c3cc(C)on3)C[C@@H]2N)c1
Ans. YES

Qu. Is 20% strictly greater than the compound's reported Percent Effect? compound: N#CC1=C(N)Nn2c(nnc2-c2ccccc2Br)S1
Ans. YES

Qu. Is 20% strictly greater than the compound's reported Percent Effect? compound: COc1cccc2sc(N3CCN(C(=O)c4cc(C)on4)CC3)nc12
Ans. NO
